# Assay Target: T1, soluble heterodimeric hCD3ε/δ.mFc protein (human)
# T1 construct: also called soluble human CD3; soluble heterodimeric CD3 protein
# T1 chain 1: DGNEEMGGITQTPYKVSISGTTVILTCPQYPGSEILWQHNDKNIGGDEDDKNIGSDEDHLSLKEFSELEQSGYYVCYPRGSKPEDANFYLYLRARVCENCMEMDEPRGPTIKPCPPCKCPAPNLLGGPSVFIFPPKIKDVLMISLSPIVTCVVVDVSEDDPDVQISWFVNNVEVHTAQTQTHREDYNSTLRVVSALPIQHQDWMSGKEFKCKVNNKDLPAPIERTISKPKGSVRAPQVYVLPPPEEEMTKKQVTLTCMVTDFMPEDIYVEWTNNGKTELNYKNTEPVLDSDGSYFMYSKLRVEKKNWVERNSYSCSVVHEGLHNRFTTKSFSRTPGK
# T1 chain 2: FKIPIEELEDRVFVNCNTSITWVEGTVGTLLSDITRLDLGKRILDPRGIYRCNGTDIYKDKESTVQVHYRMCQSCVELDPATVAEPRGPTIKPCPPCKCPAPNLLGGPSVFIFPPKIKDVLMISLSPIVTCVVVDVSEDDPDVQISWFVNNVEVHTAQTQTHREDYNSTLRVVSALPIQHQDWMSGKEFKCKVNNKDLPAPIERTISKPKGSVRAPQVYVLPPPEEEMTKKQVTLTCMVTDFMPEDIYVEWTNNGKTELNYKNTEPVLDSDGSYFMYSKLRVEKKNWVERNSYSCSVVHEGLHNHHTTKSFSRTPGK
# Experiment Description: SPR MASS-1, 37 C, antigen-capture (hCD3ε/δ.mFc captured), antibody injected
Endpoint Label: T½

INSERT INTO results (binder, endpoint_label, measured) VALUES
  ('BSPSMA/CD3-2100 (bispecific antibody, IgG4, V domains shown, modified (chimeric) IgG4 Fc domain; also called PSMA-VH-11810 x CD3-VH-G21) VH 1: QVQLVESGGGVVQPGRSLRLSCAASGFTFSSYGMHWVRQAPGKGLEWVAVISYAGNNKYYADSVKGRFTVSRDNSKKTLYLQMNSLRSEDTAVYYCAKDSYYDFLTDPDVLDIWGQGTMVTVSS VH 2: EVQLVESGGGLVQPGRSLRLSCAASGFTFDDYSMHWVRQAPGKGLEWVSGISWNSGSKGYADSVKGRFTISRDNAKNSLYLQMNSLRAEDTALYYCAKDGSGYGKFYYYGMDVWGQGTTVTVSS VL: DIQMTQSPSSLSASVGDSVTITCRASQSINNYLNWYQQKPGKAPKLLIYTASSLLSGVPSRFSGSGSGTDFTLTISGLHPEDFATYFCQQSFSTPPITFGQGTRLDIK', 'T½', '4.9 min'),
  ('BSPSMA/CD3-900 (bispecific antibody, IgG4, V domains shown, modified (chimeric) IgG4 Fc domain; also called PSMA-VH-11810 x CD3-VH-G9) VH 1: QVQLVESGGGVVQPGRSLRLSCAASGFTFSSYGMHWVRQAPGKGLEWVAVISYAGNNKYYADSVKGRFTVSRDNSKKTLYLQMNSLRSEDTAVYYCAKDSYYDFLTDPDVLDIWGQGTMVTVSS VH 2: EVQLVESGGGLVQPGRSLRLSCAASGFTFDDYSMHWVRQAPGKGLEWVSGISWNSGSKGYADSVKGRFTISRDNAKNSLYLQMNSLRAEDTALYYCAKDGSGYGKFYHYGLDVWGQGTTVTVSS VL: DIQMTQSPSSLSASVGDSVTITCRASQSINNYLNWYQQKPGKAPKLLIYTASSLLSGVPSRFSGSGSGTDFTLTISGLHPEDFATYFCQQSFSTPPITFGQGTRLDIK', 'T½', '2.3 min'),
  ('BSPSMA/CD3-1400 (bispecific antibody, IgG4, V domains shown, modified (chimeric) IgG4 Fc domain; also called PSMA-VH-11810 x CD3-VH-G14) VH 1: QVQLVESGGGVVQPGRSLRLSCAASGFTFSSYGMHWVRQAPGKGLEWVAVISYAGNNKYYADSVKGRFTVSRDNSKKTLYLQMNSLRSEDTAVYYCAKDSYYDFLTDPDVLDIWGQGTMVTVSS VH 2: EVQLVESGGGLVQPGRSLRLSCAASGFTFDDYSMHWVRQAPGKGLEWVSGISWNSGSIGYADSVKGRFTISRDNAKNSLYLQMNSLRAEDTALYYCAKYGSGYGKFYHYGMDVWGQGTTVTVSS VL: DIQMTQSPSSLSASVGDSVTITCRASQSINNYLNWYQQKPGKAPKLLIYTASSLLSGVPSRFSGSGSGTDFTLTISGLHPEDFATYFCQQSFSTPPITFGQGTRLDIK', 'T½', '3.5 min'),
  ('BSPSMA/CD3-1600 (bispecific antibody, IgG4, V domains shown, modified (chimeric) IgG4 Fc domain; also called PSMA-VH-11810 x CD3-VH-G16) VH 1: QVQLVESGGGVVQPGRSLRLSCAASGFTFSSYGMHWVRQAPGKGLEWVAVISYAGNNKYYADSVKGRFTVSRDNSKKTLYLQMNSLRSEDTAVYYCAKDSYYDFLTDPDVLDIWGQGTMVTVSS VH 2: EVQLVESGGGLVQPGRSLRLSCAASGFTFDDYSMHWVRQAPGKGLEWVSGISWNSGSKGYADSVKGRFTISRDNAKNSLYLQMNSLRAEDTALYYCAKDGSGYGKFYHYGMDVWGQGTTVTVSS VL: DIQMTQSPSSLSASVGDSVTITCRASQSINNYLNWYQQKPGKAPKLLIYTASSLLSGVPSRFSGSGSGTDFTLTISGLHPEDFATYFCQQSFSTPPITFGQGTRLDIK', 'T½', '4.7 min'),
  ('BSPSMA/CD3-1100 (bispecific antibody, IgG4, V domains shown, modified (chimeric) IgG4 Fc domain; also called PSMA-VH-11810 x CD3-VH-G11) VH 1: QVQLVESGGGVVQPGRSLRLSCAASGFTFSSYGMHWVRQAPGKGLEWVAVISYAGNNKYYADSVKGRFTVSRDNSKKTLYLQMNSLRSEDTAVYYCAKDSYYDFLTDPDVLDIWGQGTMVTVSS VH 2: EVQLVESGGGLVQPGRSLRLSCAASGFTFDDYSMHWVRQAPGKGLEWVSGISWNSGSKGYADSVKGRFTISRDNAKNSLYLQMNSLRAEDTALYYCAKYGSGYGKFYHYGMDVWGQGTTVTVSS VL: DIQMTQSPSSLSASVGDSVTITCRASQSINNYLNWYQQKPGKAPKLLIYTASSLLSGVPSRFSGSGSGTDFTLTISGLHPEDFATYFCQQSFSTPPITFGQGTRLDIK', 'T½', '11.3 min'),
  ('BSPSMA/CD3-1900 (bispecific antibody, IgG4, V domains shown, modified (chimeric) IgG4 Fc domain; also called PSMA-VH-11810 x CD3-VH-G19) VH 1: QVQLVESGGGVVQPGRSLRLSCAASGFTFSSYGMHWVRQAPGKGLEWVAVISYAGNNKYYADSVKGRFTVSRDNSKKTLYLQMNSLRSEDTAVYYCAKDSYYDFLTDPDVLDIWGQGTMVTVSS VH 2: EVQLVESGGGLVQPGRSLRLSCAASGFTFDDYSMHWVRQAPGKGLEWVSGISWNSGSIGYADSVKGRFTISRDNAKNSLYLQMNSLRAEDTALYYCAKDGSGYGKFYHYGMDVWGQGTTVTVSS VL: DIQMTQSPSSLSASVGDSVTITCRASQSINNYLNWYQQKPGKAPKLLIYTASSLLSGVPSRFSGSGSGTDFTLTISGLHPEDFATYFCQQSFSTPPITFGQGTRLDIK', 'T½', '2.3 min'),
  ('BSPSMA/CD3-800 (bispecific antibody, IgG4, V domains shown, modified (chimeric) IgG4 Fc domain; also called PSMA-VH-11810 x CD3-VH-G8) VH 1: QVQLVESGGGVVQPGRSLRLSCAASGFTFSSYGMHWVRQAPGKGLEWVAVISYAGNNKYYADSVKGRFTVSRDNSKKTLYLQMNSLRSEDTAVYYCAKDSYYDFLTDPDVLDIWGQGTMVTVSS VH 2: EVQLVESGGGLVQPGRSLRLSCAASGFTFDDYSMHWVRQAPGKGLEWVSGISWNSGSIGYADSVKGRFTISRDNAKNSLYLQMNSLRAEDTALYYCAKYGSGYGKFYHYGLDVWGQGTTVTVSS VL: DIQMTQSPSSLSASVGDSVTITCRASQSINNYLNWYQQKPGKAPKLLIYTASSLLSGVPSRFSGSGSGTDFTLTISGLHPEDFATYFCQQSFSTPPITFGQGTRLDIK', 'T½', '10 min'),
  ('BSPSMA/CD3-1500 (bispecific antibody, IgG4, V domains shown, modified (chimeric) IgG4 Fc domain; also called PSMA-VH-11810 x CD3-VH-G15) VH 1: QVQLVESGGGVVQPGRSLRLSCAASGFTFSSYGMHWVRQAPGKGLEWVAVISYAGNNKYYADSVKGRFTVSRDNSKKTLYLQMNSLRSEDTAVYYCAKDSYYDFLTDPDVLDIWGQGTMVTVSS VH 2: EVQLVESGGGLVQPGRSLRLSCAASGFTFDDYSMHWVRQAPGKGLEWVSGISWNSGSKGYADSVKGRFTISRDNAKNSLYLQMNSLRAEDTALYYCAKDGSGYGKFYYYGLDVWGQGTTVTVSS VL: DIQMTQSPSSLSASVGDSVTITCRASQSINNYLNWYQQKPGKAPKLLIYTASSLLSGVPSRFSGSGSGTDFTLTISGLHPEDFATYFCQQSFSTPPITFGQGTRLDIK', 'T½', '1.9 min');
